The measurements presented in this section are drawn from patent US9657035B1.

System: ovarian epithelial carcinoma-derived cancer cells A2780
ASSAY NAME: Cell proliferation MTT assay, 72 h
Assay type: cell-based, human
PARTICULARS: mean±SEM, listed as (2)
Procedure: Complexes 1 and 2 were dissolved (10 mM) in DMSO and stored at -80° C. at volumes of 500 μL or aliquots with volumes of 10 μL were taken and stored at -20° C. (used once without refreezing). The compounds were then diluted in RPMI medium immediately before use. Cisplatin was purchased from Mayne Pharma. Culture medium with the same amount of drug-free DMSO was used as a negative control. […] After 72 hours, the number of viable cells was evaluated by a trypan blue dye exclusion. […]

[
  {
    "MOLECULE": "NC1CCCCC1N.NC1CCCCC1N.[Au+3].[Cl-].[Cl-].[Cl-] [Complex 2, 1(R),2(R)-[(DACH)2Au]Cl3]",
    "MEASURED ON": "ovarian epithelial carcinoma-derived cancer cells A2780",
    "IC50": "6.9 µM"
  }
]
